Recorded values, source patent US6017871A.

substrate: C[C@H](NC(=O)CCC(=O)O)C(=O)N[C@@H](C)C(=O)N1CCC[C@H]1C(=O)N[C@@H](Cc1ccccc1)C(=O)Nc1ccc([N+](=O)[O-])cc1; test: Kinetic parameters for hydrolysis of synthetic peptide substrate; format: biochemical, Bacillus lentus; conditions: other: Table III, 0.1 M Tris-HCL buffer, pH 8.6, 25° C.
This section presents proteins with their documented kcat/Km values.
recorded_metric: kcat/Km (M⁻¹ s⁻¹)

[
  {
    "protein": "Bacillus lentus subtilisin variant N76D (Lederbergia lenta; N74D) (protein, The mature subtilisin protein is coded by the codons beginning at the codon GCG (334-336) corresponding to Ala; made in house; host or cells: Bacillus subtilis) AQSVPWGISRVQAPAAHNRGLTGSGVKVAVLDTGISTHPDLNIRGGASFVPGEPSTQDGNGHGTHVAGTIAALDNSIGVLGVAPSAELYAVKVLGASGSGSVSSIAQGLEWAGNNGMHVANLSLGSPSPSATLEQAVNSATSRGVLVVAASGNSGAGSISYPARYANAMAVGATDQNNNRASFSQYGAGLDIVAPGVNVQSTYPGSTYASLNGTSMATPHVAGAAALVKQKNPSWSNVQIRNHLKNTATSLGSTNLYGSGLVNAEAATR",
    "unit_abbrev": "M⁻¹ s⁻¹",
    "endpoint_value": 274000
  },
  {
    "protein": "Bacillus lentus subtilisin variant N76D/S99D (Protease #1) (Lederbergia lenta; N74D/S97D) (protein, The mature subtilisin protein is coded by the codons beginning at the codon GCG (334-336) corresponding to Ala; made in house; host or cells: Bacillus subtilis) AQSVPWGISRVQAPAAHNRGLTGSGVKVAVLDTGISTHPDLNIRGGASFVPGEPSTQDGNGHGTHVAGTIAALDNSIGVLGVAPSAELYAVKVLGADGSGSVSSIAQGLEWAGNNGMHVANLSLGSPSPSATLEQAVNSATSRGVLVVAASGNSGAGSISYPARYANAMAVGATDQNNNRASFSQYGAGLDIVAPGVNVQSTYPGSTYASLNGTSMATPHVAGAAALVKQKNPSWSNVQIRNHLKNTATSLGSTNLYGSGLVNAEAATR",
    "unit_abbrev": "M⁻¹ s⁻¹",
    "endpoint_value": 144000
  }
]
